Attribution: the supplement of paper PMC10057847

Quick reference: basal output G0 (log10) of the listed items.
B1: library; the commonest letter at each place (parent)
chain: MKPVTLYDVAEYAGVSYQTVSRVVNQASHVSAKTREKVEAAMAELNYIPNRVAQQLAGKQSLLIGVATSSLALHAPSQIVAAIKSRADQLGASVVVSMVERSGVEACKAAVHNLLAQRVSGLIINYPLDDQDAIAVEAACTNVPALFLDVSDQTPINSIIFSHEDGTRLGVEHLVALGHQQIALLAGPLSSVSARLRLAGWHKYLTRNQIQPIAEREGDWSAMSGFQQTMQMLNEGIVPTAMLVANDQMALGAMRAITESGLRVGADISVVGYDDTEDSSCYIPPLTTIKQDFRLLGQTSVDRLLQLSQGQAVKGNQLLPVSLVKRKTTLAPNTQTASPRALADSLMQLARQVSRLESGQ

variants of: B1; assay: basal output G0 (YFP, no IPTG) (log10 MEF); higher = higher reporter expression without inducer; details: with IPTG
measure: basal output G0 (log10)

>>> measvalue("S97T F161V")
2.49
>>> measvalue("V136E L169P")
4.54
>>> measvalue("I83F")
2.91
>>> measvalue("H74Y A92V H112L S151T D165N H179Q")
4.43
>>> measvalue("Q60R N113S R207G R216G V271M L307I A350T")
2.28
>>> measvalue("S28G T34M Q60R A81S E100K L148V S221N V271L")
3.92
>>> measvalue("S70R Q181H")
2.55
>>> measvalue("V80L I83M S97T")
1.99
>>> measvalue("V136E F161V")
4.52
>>> measvalue("S279T")
2.68
>>> measvalue("Q231R")
2.29
>>> measvalue("L90Q L198M E235D T336S")
2.51
>>> measvalue("Q317L")
2.08
